# test_target: Glutamate receptor ionotropic, NMDA 1 (Rattus norvegicus)
# assay_details: Affinity for N-methyl-D-aspartate glutamate receptor 1 in rat brain synaptic membranes, using [3H]glycine as radioligand
property_label: pIC50
Numbers only, as −log10 of the molar value.

[
  {
    "molecule": "CN1CCc2c(C#N)cc3[nH]c(=O)c(=O)[nH]c3c2C1",
    "quantitative_readout": 5.85
  },
  {
    "molecule": "CCN1CCc2c(c([N+](=O)[O-])cc3nc(O)c(O)nc23)C1",
    "quantitative_readout": 5.30
  },
  {
    "molecule": "CCOC(=O)C(=O)N1CCCc2c1ccc1[nH]c(=O)c(=O)[nH]c21",
    "quantitative_readout": 4.30
  },
  {
    "molecule": "CN1CCc2c(c([N+](=O)[O-])cc3[nH]c(=O)c(=O)[nH]c23)C1",
    "quantitative_readout": 5.31
  },
  {
    "molecule": "CC(C)CCN1CCc2c([N+](=O)[O-])cc3[nH]c(=O)c(=O)[nH]c3c2C1",
    "quantitative_readout": 6.07
  }
]

Attention now shifts to the item below.
Lookup: Entry O=c1[nH]c2ccc3c(c2[nH]c1=O)NCCC3 has what pIC50?
Found: 5.89

---

# test_target: Glutamate receptor ionotropic, AMPA (Rattus norvegicus, UniProt P19490+P19491+P19492+P19493)
Criterion: IC50 strictly under 2000 nM. Met: T. Not met: F.

Example cases with answers are listed next.
[
  {
    "compound": "CC(C)N1CCc2c([N+](=O)[O-])cc3[nH]c(=O)c(=O)[nH]c3c2C1",
    "cat": "T"
  },
  {
    "compound": "CC(C)CCN1CCc2c(Br)cc3nc(O)c(O)nc3c2C1",
    "cat": "F"
  },
  {
    "compound": "CCC(C)CN1CCc2c(Br)cc3nc(O)c(O)nc3c2C1 (stereo not drawn)",
    "cat": "F"
  },
  {
    "compound": "CCN1CCc2c(c([N+](=O)[O-])cc3nc(O)c(O)nc23)C1",
    "cat": "F"
  },
  {
    "compound": "CN1CCc2c(c([N+](=O)[O-])cc3[nH]c(=O)c(=O)[nH]c23)C1",
    "cat": "T"
  },
  {
    "compound": "CCN1CCc2c([N+](=O)[O-])cc3[nH]c(=O)c(=O)[nH]c3c2C1",
    "cat": "T"
  }
]

Lookup: Below 2000 nM on IC50? Entry CCC(C)N1CCc2c([N+](=O)[O-])cc3[nH]c(=O)c(=O)[nH]c3c2C1 (stereo not drawn)
Found: T

Lookup: Below 2000 nM on IC50? Entry CN1CCc2c([N+](=O)[O-])cc3[nH]c(=O)c(=O)[nH]c3c2C1
Found: T

---

Exercise: for every item that follows, state its recorded pIC50.
# test_target: Glutamate receptor ionotropic, NMDA 1 (Rattus norvegicus, UniProt P35439)
# assay_details: Affinity for N-methyl-D-aspartate glutamate receptor 1 in rat brain synaptic membranes, using [3H]glycine as radioligand
Numbers only, as −log10 of the molar value.

// known answers, use as guide
[
  {
    "compound": "CN1CCc2c(Br)cc3[nH]c(=O)c(=O)[nH]c3c2C1",
    "property_label": "pIC50",
    "quantitative_readout": 5.40
  },
  {
    "compound": "CCCN1CCc2c(c([N+](=O)[O-])cc3[nH]c(=O)c(=O)[nH]c23)C1",
    "property_label": "pIC50",
    "quantitative_readout": 4.70
  },
  {
    "compound": "CN1CCc2c(c(Br)cc3[nH]c(=O)c(=O)[nH]c23)C1",
    "property_label": "pIC50",
    "quantitative_readout": 5.37
  },
  {
    "compound": "CCC(C)N1CCc2c([N+](=O)[O-])cc3[nH]c(=O)c(=O)[nH]c3c2C1 (stereo not given)",
    "property_label": "pIC50",
    "quantitative_readout": 6.03
  },
  {
    "compound": "CC(C)N1CCc2c([N+](=O)[O-])cc3[nH]c(=O)c(=O)[nH]c3c2C1",
    "property_label": "pIC50",
    "quantitative_readout": 6.03
  }
]

Hi there! I need pIC50 for each item below, if you can.
1. O=c1[nH]c2cc(Br)c3c(c2[nH]c1=O)CNCC3
2. CN1CCc2c([N+](=O)[O-])cc3[nH]c(=O)c(=O)[nH]c3c2C1
3. CCN1CCc2c([N+](=O)[O-])cc3[nH]c(=O)c(=O)[nH]c3c2C1

Found:
[6.00, 6.43, 5.85]

---

# test_target: Glutamate receptor ionotropic, kainate
# assay_details: Binding affinity for the ionotropic glutamate receptor kainate in rat brain synaptic membranes using [3H]kainate as radioligand
# Type: cell membranes
property_label: pIC50
Give bare numbers, as −log10 of the molar value.

[
  {
    "compound": "CN1CCc2c(ccc3[nH]c(=O)c(=O)[nH]c23)C1",
    "pIC50": 4.54
  },
  {
    "compound": "CCCCCCCN1CCc2c(ccc3[nH]c(=O)c(=O)[nH]c23)C1",
    "pIC50": 4.35
  },
  {
    "compound": "CCN1CCc2c(c(Br)cc3[nH]c(=O)c(=O)[nH]c23)C1",
    "pIC50": 4.85
  }
]

Hi there! I need pIC50 for each item below, if you can.
1. CN1CCc2c(c(S(=O)(=O)c3ccccc3)cc3nc(O)c(O)nc23)C1
2. CN1CCc2c(C#N)cc3[nH]c(=O)c(=O)[nH]c3c2C1

Found:
[4.14, 5.62]

Hi there! I need pIC50 for each item below, if you can.
1. CCOC(=O)C(=O)N1CCCc2c1ccc1[nH]c(=O)c(=O)[nH]c21
2. CC(C)N1CCc2c([N+](=O)[O-])cc3[nH]c(=O)c(=O)[nH]c3c2C1
3. CCC(C)N1CCc2ccc3nc(O)c(O)nc3c2C1 (configuration not stated)
4. CCN1CCc2c(ccc3nc(O)c(O)nc23)C1
5. CCC(C)CN1CCc2c(Br)cc3nc(O)c(O)nc3c2C1 (configuration not stated)
6. CCN1CCc2c(Br)cc3[nH]c(=O)c(=O)[nH]c3c2C1

Found:
1. 4.70
2. 6.54
3. 4.68
4. 4.43
5. 5.54
6. 5.19

---

# test_target: Glutamate receptor ionotropic, kainate
# assay_details: Antagonistic activity against Ionotropic glutamate receptor kainate induced LDH release in cultured cortical neurons in rat after 24 hr application of 500 uM of kainate
# Assay type: functional
Exercise: for every item that follows, state its recorded pIC50.
Numbers only, as −log10 of the molar value.

[
  {
    "compound": "CCN1CCc2c(c([N+](=O)[O-])cc3nc(O)c(O)nc23)C1",
    "test_target": "Glutamate receptor ionotropic, kainate",
    "pIC50": 4.59
  }
]

Hi there! I need pIC50 for each item below, if you can.
1. CN1CCc2c([N+](=O)[O-])cc3[nH]c(=O)c(=O)[nH]c3c2C1
2. CCN1CCc2c([N+](=O)[O-])cc3[nH]c(=O)c(=O)[nH]c3c2C1
3. CCC(C)CN1CCc2c([N+](=O)[O-])cc3[nH]c(=O)c(=O)[nH]c3c2C1 (centres undefined)
4. CC(C)CCN1CCc2c([N+](=O)[O-])cc3[nH]c(=O)c(=O)[nH]c3c2C1
5. CC(C)N1CCc2c([N+](=O)[O-])cc3[nH]c(=O)c(=O)[nH]c3c2C1

Found:
1: 5.40; 2: 5.15; 3: 4.96; 4: 5.15; 5: 5.15

Lookup: Entry CN1CCc2c(c([N+](=O)[O-])cc3[nH]c(=O)c(=O)[nH]c23)C1 has what pIC50?
Found: 5.05

---

# test_target: Glutamate receptor ionotropic, NMDA 1 (Rattus norvegicus, UniProt P35439)
# assay_details: Affinity for N-methyl-D-aspartate glutamate receptor 1 in rat brain synaptic membranes, using [3H]glycine as radioligand
Exercise: for every item that follows, state its recorded pIC50.
Give bare numbers, as −log10 of the molar value.

// known answers, use as guide
[
  {
    "compound": "CCC(C)CN1CCc2c([N+](=O)[O-])cc3[nH]c(=O)c(=O)[nH]c3c2C1 (stereo not given)",
    "pIC50": 5.89
  },
  {
    "compound": "CCN1CCc2c(c(Br)cc3[nH]c(=O)c(=O)[nH]c23)C1",
    "pIC50": 3.57
  }
]

Attention now shifts to the item below.
Lookup: Entry CCN1CCc2c(Br)cc3[nH]c(=O)c(=O)[nH]c3c2C1 has what pIC50?
Found: 6.21
